The origin of these recorded values is ChEMBL document CHEMBL1142710.

Consider the following molecules; for each one, report its log10(Ki).
target or system: Mu-type opioid receptor (Rattus norvegicus)
Sequence (P33535 whole entry): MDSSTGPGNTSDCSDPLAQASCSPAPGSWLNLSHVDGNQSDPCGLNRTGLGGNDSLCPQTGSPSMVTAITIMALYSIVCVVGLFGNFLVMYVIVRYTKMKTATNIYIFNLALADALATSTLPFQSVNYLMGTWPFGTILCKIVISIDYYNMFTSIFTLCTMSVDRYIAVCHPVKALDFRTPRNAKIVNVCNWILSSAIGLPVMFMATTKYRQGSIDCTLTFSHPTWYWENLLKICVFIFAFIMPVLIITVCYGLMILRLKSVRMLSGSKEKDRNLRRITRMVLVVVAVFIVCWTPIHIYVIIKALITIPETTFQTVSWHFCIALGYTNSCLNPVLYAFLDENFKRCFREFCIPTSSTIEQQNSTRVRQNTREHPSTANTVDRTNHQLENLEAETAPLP
assay info: Binding affinity against Opioid receptor mu 1 from rat brain membranes using [3H]DAMGO
On a log10 scale: recorded Ki, unit nM.

Solved cases below.
{"molecule": "C=CCN1CCC23c4c5ccc(O)c4O[C@@]2(C)c2[nH]c4ccccc4c2C[C@@]3(OCC)C1C5 (stereo partly specified)", "reported result": 2.82}
{"molecule": "CC1CN(CCCc2ccccc2)C2CC(N)CC1(c1cccc(O)c1)C2 (stereo unspecified)", "reported result": 0.52}
{"molecule": "Oc1ccc2c3c1O[C@H]1c4ncc(-c5ccccc5)cc4C[C@@]4(O)C(C2)N(CC2CC2)CCC314 (stereo partly specified)", "reported result": 1.13}
{"molecule": "CN1CCC23c4c5ccc(O)c4O[C@H]2c2ncc(-c4ccc(Cl)c(Cl)c4)cc2C[C@H]3C1C5 (stereo partly specified)", "reported result": 1.97}
{"molecule": "COc1ccc2c(c1O)[C@]13CCN(C)C(C2)[C@]1(O)CC1c2ccccc2NC1C3 (stereo partly specified)", "reported result": 3.45}

Dear colleague, could you send me log10(Ki) for each of the items below? Thanks.
1. CCCCCCCN1CC[C@]23c4c5ccc(O)c4O[C@@H]2c2[nH]c4ccccc4c2C[C@@]3(O)[C@H]1C5
2. Cc1ncc2c(n1)[C@@H]1Oc3c(O)ccc4c3C13CCN(CC1CC1)C(C4)[C@]3(O)C2 (stereo partly specified)
3. Oc1ccc2c3c1O[C@H]1c4nccc(-c5ccccc5)c4C[C@@]4(O)C(C2)N(CC2CC2)CCC314 (stereo partly specified)
4. CN1CC[C@]23c4c5ccc(O)c4O[C@@H]2c2[nH]c4ccccc4c2C[C@H]3[C@H]1C5
5. Oc1ccc2c3c1O[C@@H]1c4[nH]c5ccc(Oc6ccccc6)cc5c4C[C@@]4(O)[C@@H](C2)N(CC2CC2)CC[C@]314
6. O=C1CC[C@@]2(OCCCc3ccccc3)C3Cc4cccc(O)c4C2(CCN3CC2CC2)C1 (stereo partly specified)

1. 3.66
2. 0.78
3. 2.28
4. 2.85
5. 2.47
6. -0.40

Dear colleague, could you send me log10(Ki) for each of the items below? Thanks.
1. Oc1ccc2c3c1O[C@@H]1c4[nH]c5c(-c6ccccc6)cccc5c4C[C@@]4(O)[C@@H](C2)N(CC2CC2)CC[C@]314
2. Oc1ccc2c3c1O[C@@H]1c4[nH]c5cccc(-c6ccccc6)c5c4C[C@@]4(O)[C@@H](C2)N(CC2CC2)CC[C@]314

[2.09, 3.18]

Dear colleague, could you send me log10(Ki) for each of the items below? Thanks.
1. CC(C)CCN1CC[C@]23c4c5ccc(O)c4O[C@@H]2c2[nH]c4ccccc4c2C[C@@]3(O)[C@H]1C5
2. O=C(Oc1cccc2[nH]c3c(c12)C[C@@]1(O)[C@H]2Cc4ccc(O)c5c4[C@@]1(CCN2CC1CC1)[C@@H]3O5)c1ccccc1
3. Oc1ccc2c3c1O[C@@H]1c4[nH]c5cc(Oc6ccccc6)ccc5c4C[C@@]4(O)[C@@H](C2)N(CC2CC2)CC[C@]314

3.11
2.56
2.37
